IC50 overview
Biological target: TEAD4 (Homo sapiens, UniProt Q15561)
Sequence (Q15561 whole entry, species assumed): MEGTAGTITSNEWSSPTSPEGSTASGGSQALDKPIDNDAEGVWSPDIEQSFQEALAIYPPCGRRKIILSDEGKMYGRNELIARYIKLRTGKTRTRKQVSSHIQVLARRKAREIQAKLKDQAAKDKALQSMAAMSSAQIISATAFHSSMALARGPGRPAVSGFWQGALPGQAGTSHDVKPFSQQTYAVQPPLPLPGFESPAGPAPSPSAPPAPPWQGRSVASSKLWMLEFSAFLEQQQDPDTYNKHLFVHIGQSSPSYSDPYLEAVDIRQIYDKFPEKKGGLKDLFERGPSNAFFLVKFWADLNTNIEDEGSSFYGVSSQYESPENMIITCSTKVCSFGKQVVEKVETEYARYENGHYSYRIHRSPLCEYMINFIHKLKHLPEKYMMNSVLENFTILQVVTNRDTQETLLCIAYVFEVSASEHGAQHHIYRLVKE
Experiment: Lipid HTRF (TR-FRET lipid pocket probe competition), 30 min pre-incubation, TEAD4
Type: binding
Conditions: His-tagged TEAD4, 30 minutes pre-incubation with compound at room temperature; read-out: Lipid HTRF TEAD4 IC50
Report the value in nM with no unit label.

Some solved cases for reference:
Reported IC50 ( C=CC(=O)Nc1cc2c(c(CO[C@H]3CC[C@H](C(F)(F)F)CC3)c1)OCC2 [Final product from Example 34] ) = 1200

Reported IC50 ( CC(C)c1ccc(-c2cc(N(C)C(=O)NC#N)c(C#N)c3c2OCC3)cc1 [Final product from Example 47] ) = 840

Reported IC50 ( C=CC(=O)Nc1ccc(OC)c(/C=C/[C@H]2CC[C@H](C(F)(F)F)CC2)c1 [Final product from Example 22] ) = 120

Reported IC50 ( C=CC(=O)Nc1cc(/C=C/C2CCC(F)(F)CC2)c2c(c1)CC(C)O2 (single isomer, unassigned) [Enantiomer D from Example 35] ) = 1100

Reported IC50 ( CC(C)c1ccc(-c2cc(NC(=O)N(C)C#N)c(C#N)c3c2OCC3)cc1 [Final product from Example 46] ) = 70

Next:
Reported IC50 ( C=CC(=O)Nc1cnc(OC)c(-c2ccc(C(C)C)cc2)c1 [Final product from Example 41] ) = 1500
